assay: Stability in human hepatic microsomes assessed as parent compound remaining after 30 mins in presence of NADPH; assay type: ADME, Microsome; settings: liver microsomes, read-out: Stability
experimental readout: remaining at 0.5 h

             molecule_smiles  result
0  NC(=O)Cc1ccccc1-c1ccccc1F   > 95%
